RUN_DESCRIPTION: chemical genetic growth profiling, strain panel (AID 1159580);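 note: tested at 20 µM; growth read once vehicle control cultures reached saturation at 30 °C; 1 = growth at the plate median or of vehicle wells; lower values mean less growth of the strain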
STATED_CONDITIONS: S. cerevisiae deletion strains, growth OD, locus YJR075W, strain HOC1, stronger effect = lower value
Screen size: about 5,500 compounds; about 2,000 (36%) were called active. Inconclusive results (about 18%) are left out. The list shows a part of the results.
OBSERVED_PROPERTY: normalized growth

Worked cases, normalized growth given:
>  <COMPOUND>
Nc1ncnc2c1ncn2C1O[C@H](COP(=O)(O)O)[C@@H](O)[C@H]1O (stereo partly specified)

>  <normalized growth>
1.04 (inactive)

$$$$
>  <COMPOUND>
CNc1ncnc2c1ncn2[C@H]1C[C@H](OP(=O)(O)O)[C@@H](COP(=O)(O)O)O1

>  <normalized growth>
1.01 (inactive)

$$$$
>  <COMPOUND>
CC(=O)N/C(=C/c1ccc2c(c1)OCO2)C(=O)O

>  <normalized growth>
1.02 (inactive)

$$$$
>  <COMPOUND>
CCOc1ccc(/C=C(\C)[N+](=O)[O-])cc1OC

>  <normalized growth>
0.178 (active)

$$$$
>  <COMPOUND>
Nc1nc2c(ncn2C2C[C@H](O)[C@@H](CO)O2)c(=O)[nH]1 (stereo partly specified)

>  <normalized growth>
0.992 (inactive)

$$$$

We now examine a further compound.
Input line: Consider the compound "Nc1ncnc2c1ncn2[C@@H]1O[C@H](CO)[C@@H](O)[C@H]1O" and give its recorded normalized growth.
Output line: 0.99 (inactive)

* * *

RUN_DESCRIPTION: chemical genetic growth profiling, strain panel (AID 1159580)
STATED_CONDITIONS: S. cerevisiae deletion strains, growth OD, locus YDR477W, strain SNF1
In all, about 5,500 compounds went through this assay and about 2,000 (36%) were called active. Not shown: some 18% with an inconclusive outcome. Cut-off read from the data, not from the text of the source: active = normalized growth mostly below about 0.91 (no sharp cut-off); inconclusive = no clear call, values can overlap the other calls; inactive = mostly above about 0.92. Some of the results follow.
Hello, when you answer, please use one of the following outcomes: active, inactive

Observe how each entry below is paired with its result.
>  <COMPOUND>
CSc1ccc(/C=C(\C)[N+](=O)[O-])cc1

>  <GROUP>
active

$$$$
>  <COMPOUND>
CC(C)c1ccc(N2C=Nc3ccc(C(C)C)cc3C2)cc1

>  <GROUP>
inactive

$$$$
>  <COMPOUND>
O=C1CSC(c2cccnc2)N1c1ccc(Cl)cc1Cl (stereo not given)

>  <GROUP>
inactive

$$$$

Input line: Which result was noted for this compound in the test: "NC(=Nc1ccc(F)cc1)SCc1c(Cl)cccc1Cl"
Output line: inactive

Input line: Which result was noted for this compound in the test: "O=[N+]([O-])/C=C/c1ccsc1"
Output line: active

* * *

RUN_DESCRIPTION: chemical genetic growth profiling, strain panel (AID 1159580)
STATED_CONDITIONS: S. cerevisiae deletion strains, growth OD, locus YDR054C, strain cdc34
Screen size: about 5,500 compounds; about 2,000 (36%) were called active. About 18% were inconclusive and are not listed. Rule as the data show it: active = normalized growth mostly below about 0.91 (no sharp cut-off); inconclusive = no clear call, values can overlap the other calls; inactive = mostly above about 0.92. This is one part of the list.
Hello, when you answer, please use one of the following outcomes: 1 (yes) for active, 0 (no) for inactive

Observe how each entry below is paired with its result.
>  <CPD_SMILES>
CCCc1c(C(=O)Sc2ccccn2)cnn1-c1ccc(Cl)cc1

>  <GROUP>
0 (no)

$$$$
>  <CPD_SMILES>
CCCc1c(C(=O)NNc2cccc(Cl)c2)cnn1-c1ccccc1

>  <GROUP>
0 (no)

$$$$
>  <CPD_SMILES>
COc1ccc(C(=O)CSC2=NCCc3ccccc32)cc1

>  <GROUP>
0 (no)

$$$$
>  <CPD_SMILES>
O=[N+]([O-])/C=C/c1ccsc1

>  <GROUP>
1 (yes)

$$$$

Input line: Which result was noted for this compound in the test: "C=CCOc1ccc(/C=C/[N+](=O)[O-])cc1"
Output line: 1 (yes)

Input line: Which result was noted for this compound in the test: "CC(=O)Nc1ccc(/C=C/[N+](=O)[O-])cc1"
Output line: 0 (no)

Input line: Which result was noted for this compound in the test: "NC(=Nc1ccc(F)cc1)SCc1c(Cl)cccc1Cl"
Output line: 0 (no)

Input line: Which result was noted for this compound in the test: "CC(=O)c1sc(SCCS(=O)(=O)c2ccc(C)cc2)c2c1CC(C)(C)CC2=O"
Output line: 0 (no)

Input line: Which result was noted for this compound in the test: "N#CCC(=O)NNC(=S)Nc1ccc(Cl)c(Cl)c1"
Output line: 0 (no)

* * *

RUN_DESCRIPTION: chemical genetic growth profiling, strain panel (AID 1159580);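 note: tested at 20 µM; growth read once vehicle control cultures reached saturation at 30 °C; 1 = growth at the plate median or of vehicle wells; lower values mean less growth of the strain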
STATED_CONDITIONS: S. cerevisiae deletion strains, growth OD, locus YLR085C, strain ARP6, stronger effect = lower value
Out of some 5,500 compounds screened, about 2,000 (36%) were called active. Another 18% or so got no clear call; they are omitted. The list shows a part of the results.
Categorize each record by its normalized growth using lower segment: < 0.6; middle segment: ≥ 0.6 and < 1; upper segment: ≥ 1

Observe how each entry below is paired with its result.
>  <MOLECULE>
OC(CNCCc1cccs1)COc1ccccc1 (stereo not given)

>  <GROUP>
upper segment

$$$$
>  <MOLECULE>
NC(=S)N/N=C\c1cc(F)cc(F)c1

>  <GROUP>
lower segment

$$$$
>  <MOLECULE>
CCn1nc(C)c(Br)c1-c1nc(-c2ccc(C(F)(F)F)cc2)no1

>  <GROUP>
upper segment

$$$$
>  <MOLECULE>
CC(C)(C)C(=O)NC(=S)Nc1cccc(C(F)(F)F)c1

>  <GROUP>
lower segment

$$$$
>  <MOLECULE>
O=C(NCCSCc1ccco1)Nc1cc(Cl)cc(Cl)c1

>  <GROUP>
middle segment

$$$$

Input line: // bin(item) where item = "O=[N+]([O-])c1ccc2nsnc2c1"
Output line: lower segment

* * *

Assignment: determine reported normalized growth for the given compounds.
RUN_DESCRIPTION: chemical genetic growth profiling, strain panel (AID 1159580);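 note: tested at 20 µM; growth read once vehicle control cultures reached saturation at 30 °C; 1 = growth at the plate median or of vehicle wells; lower values mean less growth of the strain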
STATED_CONDITIONS: S. cerevisiae deletion strains, growth OD, locus YML124C, strain tub3, stronger effect = lower value
Among all 5,500 compounds or so, about 2,000 (36%) were called active. Roughly 18% stayed inconclusive and do not appear here. This is one part of the list.

Answer for every listed entry: what is its normalized growth? The entries follow.
1. NC[C@H](O)c1ccc(O)c(O)c1
2. CC(=O)O[C@@H]1CC2C(C)(C)C=CC(=O)[C@]2(C)C2CC[C@@]3(C)[C@H](c4ccoc4)OC(=O)C4OC43[C@@]21C (stereo partly specified)
3. CC1(C)C(=O)C=CC2(C)C3CCC4(C)C(c5ccoc5)CC5OC54C3C(O)CC12 (stereo unspecified)
4. O=C1C=CC2=C3c4cc(O)c(O)cc4C[C@@]3(O)COC2=C1
5. CC1(C)C(O)CC(O)C2(C)C1CC(O)C1(C)C2CCC2(C)C(c3ccoc3)CC3OC321 (stereo unspecified)

Output line:
1. 1.01 (inactive)
2. 1 (inactive)
3. 1.01 (inactive)
4. 1 (inactive)
5. 1.01 (inactive)

Input line: Consider the compound "O=C(CCCCCCCCCCCCC1CCCC1)Nc1ccc(S(=O)(=O)c2ccc(NC(=O)CCCCCCCCCCCCC3CCCC3)cc2)cc1" and give its recorded normalized growth.
Output line: 0.99 (inactive)

* * *

RUN_DESCRIPTION: chemical genetic growth profiling, strain panel (AID 1159580);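 note: tested at 20 µM; growth read once vehicle control cultures reached saturation at 30 °C; 1 = growth at the plate median or of vehicle wells; lower values mean less growth of the strain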
STATED_CONDITIONS: S. cerevisiae deletion strains, growth OD, locus YPL078C, strain atp4, stronger effect = lower value
About 2,000 (36%) of roughly 5,500 compounds were called active. Another 18% or so got no clear call; they are omitted. The list shows a part of the results.
OBSERVED_PROPERTY: normalized growth
One number for each entry.

Worked cases, normalized growth given:
>  <COMPOUND>
CC(=O)O[C@@H]1CC2C(C)(C)C=CC(=O)[C@]2(C)C2CC[C@@]3(C)[C@H](c4ccoc4)OC(=O)C4OC43[C@@]21C (some centres not stated)

>  <normalized growth>
0.983

$$$$
>  <COMPOUND>
COC(C)(C)CCC[C@H](C)C/C=C/C(C)=C/C(=O)OC(C)C

>  <normalized growth>
1

$$$$
>  <COMPOUND>
CC1(C)C(=O)C=C[C@@]2(C)C1=C(O)C(=O)[C@]1(C)C2CC[C@@]2(C)[C@H](c3ccoc3)C[C@H]3O[C@]321 (some centres not stated)

>  <normalized growth>
0.939

$$$$
>  <COMPOUND>
COc1cc(OC)c2c(=O)c(-c3ccccc3)c(C)oc2c1OC

>  <normalized growth>
0.995

$$$$

Answer for every listed entry: what is its normalized growth? The entries follow.
1. C=CC(C1=CC(=O)C(OC)=CC1=O)c1ccccc1 (configuration not stated)
2. CC(=O)Oc1ccc(Cl)c2cccnc12
3. CC(=O)NCCCS(=O)(=O)O
4. O=C(O)c1ccccc1Nc1cccc(C(F)(F)F)c1
5. C=C[C@@H](C1=CC(=O)C(OC)=C(OC)C1=O)c1ccccc1
6. C=CC(C1=CC(=O)C(OC)=CC1=O)c1ccc(O)cc1 (configuration not stated)
7. C[C@H](N)[C@H](O)c1ccc(O)c(O)c1
8. CC(=O)O[C@@H]1C[C@@]2(C)[C@H](c3ccoc3)C[C@H]3O[C@]32[C@]2(C)C(=O)C(O)=C3C(C)(C)C(=O)C=C[C@]3(C)C12 (some centres not stated)

Output line:
0.868
0.0648
1.02
0.807
0.954
0.98
0.989
0.973
